Ref: ChEMBL document CHEMBL4689842

Test system: Fibroblast
protocol: Multiplex assay against human fibroblast
Type: toxicity, cell-based
condition: 48 h, 10 µM, compound concentration 10 uM, replicate 2

compound	Population Fragmented Nuclei (%)
COc1cc(N2CCN(C)CC2)ccc1Nc1ncc2c(n1)N(C)c1ccccc1C(=O)N2C	39%
C=C1/C(=C\C=C2/CCC[C@]3(C)[C@@H]([C@H](C)/C=C/[C@H](C)C(C)C)CC[C@@H]23)C[C@@H](O)C[C@@H]1O	39%
CN1CCC(=C2c3ccccc3CC(=O)c3sccc32)CC1.O=C(O)/C=C/C(=O)O [KETOTIFEN FUMARATE]	34%
O=C(Nc1ccc(-c2ccnc(Nc3ccc(N4CCOCC4)cc3)n2)cc1)[C@@H]1CCCN1	32%
CCN1CCN(Cc2ccc(Nc3ncc(F)c(-c4cc(F)c5nc(C)n(C(C)C)c5c4)n3)nc2)CC1.CS(=O)(=O)O	35%
CCCS(=O)(=O)c1nc(NC2CC2)cc(-c2ccc3c(ccn3C3CC(C)(C)NC(C)(C)C3)c2)n1	78%
Cl.O=c1c2cccn2c2ccccc2n1CCCN1CCC(c2ccc(Cl)cc2)CC1	27%
CNc1cc(Oc2cc(C(=O)Nc3cc(N4CCN(C)CC4)cc(C(F)(F)F)c3)ccc2C)ncn1	84%
Cc1cc(C)c(S(=O)(=O)N(Cc2ccc(-c3cccc(S(C)(=O)=O)c3)cc2)Cc2ccc(C(F)(F)F)o2)c(C)c1	21%
O=C1NC(=O)C(c2cnc3ccccn23)=C1c1cn2c3c(cc(F)cc13)CN(C(=O)N1CCCCC1)CC2	10%
CCn1c(=O)c(-c2ccc(-c3cncs3)cc2Cl)cc2cnc(Nc3ccc(N4CCN(C)CC4)cc3)nc21	43%
O=C1N/C(=N/c2ccccc2F)S/C1=C\c1ccc(C(=O)O)cc1	23%
CCCn1c(=O)c2[nH]c(-c3cnn(Cc4cccc(C(F)(F)F)c4)c3)nc2n(CC)c1=O	28%
CCOc1cc2ncc(C#N)c(Nc3ccc(OCc4ccccn4)c(Cl)c3)c2cc1NC(=O)/C=C/CN(C)C	24%
CN1C2CCC1CC(OC(c1ccc(F)cc1)c1ccc(F)cc1)C2.Cl (stereo unspecified)	64%
Cc1cn(-c2cc(NC(=O)c3ccc(C)c(Nc4nccc(-c5cccnc5)n4)c3)cc(C(F)(F)F)c2)cn1	28%
